Data origin: PubChem BioAssay (NCI)

# Lookup of reported TGI keyed by entry
system: HS 578T breast; experiment: NCI tumour cell line growth inhibition, 48 h

Study these solved cases before continuing.
- molecule: "COc1cc(S(=O)(=O)Nc2ccc(C(=O)/C=C/c3ccc(O)cc3)cc2)ccc1F"
  system: "HS 578T breast"
  TGI: "> 100 µM"
- molecule: "Cc1cc2ncn(C3CCCCO3)c2cc1C (stereo not given)"
  system: "HS 578T breast"
  TGI: "> 100 µM"
- molecule: "COc1ccc(Cn2c3c(cc(OS(=O)(=O)C(F)(F)F)c2=O)Cc2ccccc2-3)cc1"
  system: "HS 578T breast"
  TGI: "> 100 µM"
- molecule: "O=C(O)c1cccc2cccc(-c3cccc4cccc(C(=O)O)c34)c12"
  system: "HS 578T breast"
  TGI: "> 100 µM"
- molecule: "COc1ccccc1/C=C/C(=O)c1ccccc1"
  system: "HS 578T breast"
  TGI: "> 25.5 µM"

Exam item: I would be grateful if you could share the reported TGI for COC(=O)C1(CCCCCBr)CCCCCCCCCCC1=O (stereo not given) .
Marked response: > 100 µM

Exam item: I would be grateful if you could share the reported TGI for CC(C)c1cccc(C(C)C)c1NC(=O)/C(CC(=O)CC(c1ccccc1)c1c(O)c2ccccc2oc1=O)=N/O (stereo not given) .
Marked response: > 100 µM

Exam item: I would be grateful if you could share the reported TGI for COc1ccc(OC2OC(CO)C(OCc3ccccc3)C(OCc3ccccc3)C2OCc2ccccc2)cc1 (stereo not given) .
Marked response: > 100 µM

Exam item: I would be grateful if you could share the reported TGI for `CSC(SC)=C(C(=O)O)P(=O)(O)O` .
Marked response: > 100 µM

Exam item: I would be grateful if you could share the reported TGI for CCC(O)(Cc1ccc(OC)cc1)c1ccc(OC)cc1 (stereo not given) .
Marked response: > 100 µM

Exam item: I would be grateful if you could share the reported TGI for CCc1c(CNc2ccc(C(=O)NC(CC(=O)O)C(=O)O)cc2)ccc2nc(N)nc(N)c12 (stereo not given) .
Marked response: > 1000 µM

Exam item: I would be grateful if you could share the reported TGI for COc1cc(CC(C)NC(C)=O)cc(OC)c1 (stereo not given) .
Marked response: > 100 µM

Exam item: I would be grateful if you could share the reported TGI for `OCCOCn1nncc1Cn1ncc2c(SCc3ccccc3)ncnc21` .
Marked response: > 100 µM

Exam item: I would be grateful if you could share the reported TGI for `CCn1c(-c2nonc2N)nc2c(C#CC(C)(C)O)nc(OCCNC)cc21` .
Marked response: > 25 µM

Exam item: I would be grateful if you could share the reported TGI for `C=C1N(C=O)C(C)(C)N(O)C1(C)C` .
Marked response: > 100 µM

Exam item: I would be grateful if you could share the reported TGI for `CC1=NN(c2nc(N)nc(-c3sccc3N)n2)C(C)(C)C1` .
Marked response: > 100 µM

Exam item: I would be grateful if you could share the reported TGI for `C=C1OC(c2ccccc2NC)=NC12CCCCC2` .
Marked response: > 100 µM

Exam item: I would be grateful if you could share the reported TGI for `COC(=O)Cc1ccc2c(cnn2-c2ccccc2)c1OC` .
Marked response: > 10 µM

Exam item: I would be grateful if you could share the reported TGI for `Cc1cc(C)c2c(=O)cc(-c3cccc(F)c3)[nH]c2n1` .
Marked response: 3.36 µM

Exam item: I would be grateful if you could share the reported TGI for `Cc1c(C(=O)NCCN2CCOCC2)cn2ncnc(Oc3ccc(NC(=O)Nc4ccc(Cl)c(C(F)(F)F)c4)cc3)c12` .
Marked response: 3.99 µM

Exam item: I would be grateful if you could share the reported TGI for `COC(=O)c1nc(Cl)nc(Cl)c1Cl` .
Marked response: 85 µM

Exam item: I would be grateful if you could share the reported TGI for `Cc1[nH]c(=O)nc(NCCNCCO)c1C(=O)Nc1cccc2cc3ccccc3cc12` .
Marked response: > 100 µM

Exam item: I would be grateful if you could share the reported TGI for `CCOC(=O)/C=C/C1=C(c2cccs2)c2ccccc2CC1` .
Marked response: 99.1 µM

Exam item: I would be grateful if you could share the reported TGI for `Cc1cc(S(=O)(=O)Nc2n[nH]c(-c3ccccn3)n2)c(S)cc1Cl` .
Marked response: 86.6 µM

Exam item: I would be grateful if you could share the reported TGI for COc1ccc(-c2c3c(n(C4OC(CO)C(O)C(O)C4O)c(=S)c2C#N)CCC3)cc1 (stereo not given) .
Marked response: > 100 µM

---

test system: OVCAR-3 ovarian; assay: NCI tumour cell line growth inhibition, 48 h
# Lookup of reported TGI keyed by entry

Study these solved cases before continuing.
- compound: "CCc1c(CNc2ccc(C(=O)NC(CC(=O)O)C(=O)O)cc2)ccc2nc(N)nc(N)c12 (stereo not drawn)"
  observed_result: "> 1000 µM"
- compound: "O=[N+]([O-])c1cnn(C2=CNc3ccccc3N=C2)c1"
  observed_result: "> 100 µM"

Okay, now this compound:
Exam item: I would be grateful if you could share the reported TGI for `COc1ccccc1CN=C1Nc2ccncc2S(=O)(=O)N1c1ccccc1` .
Marked response: > 100 µM

---

# Lookup of reported TGI keyed by entry
test system: BT-549 breast; test: NCI tumour cell line growth inhibition, 48 h

Study these solved cases before continuing.
- compound: "CN1C(=O)N(C)C2C1NN=c1s/c(=C\\c3ccc(F)cc3)c(=O)n12 (stereo not given)"
  metric: "TGI"
  observed_result: "> 100 µM"
- compound: "COc1ccc(C2C3=C(COC3=O)Oc3cc4c(cc32)OCO4)c(OC)c1 (stereo not given)"
  metric: "TGI"
  observed_result: "> 100 µM"
- compound: "OCCOCn1nncc1Cn1ncc2c(SCc3ccccc3)ncnc21"
  metric: "TGI"
  observed_result: "> 100 µM"
- compound: "N#CC1(O)CCCCCCCCCCC1"
  metric: "TGI"
  observed_result: "> 100 µM"

Exam item: I would be grateful if you could share the reported TGI for `Cc1ccc(C(=O)N/N=C(\N=Nc2ccccc2)c2ccc(N(C)C)cc2)cc1` .
Marked response: > 100 µM

Exam item: I would be grateful if you could share the reported TGI for `CCOC(=O)/C=C/C1=C(c2cccs2)c2ccccc2CC1` .
Marked response: 54.3 µM

Exam item: I would be grateful if you could share the reported TGI for `CC1=NN(c2nc(N)nc(-c3sccc3N)n2)C(C)(C)C1` .
Marked response: > 100 µM

---

test system: UACC-257 melanoma; assay: NCI tumour cell line growth inhibition, 48 h
metric: TGI

Exam item: For UACC-257 melanoma, provide TGI of `Cc1[nH]c(=O)nc(NCCNCCO)c1C(=O)Nc1cccc2cc3ccccc3cc12` please.
Marked response: > 100 µM

Exam item: For UACC-257 melanoma, provide TGI of `CCOC(=O)/C=C/C1=C(c2cccs2)c2ccccc2CC1` please.
Marked response: 53.7 µM

Exam item: For UACC-257 melanoma, provide TGI of `O=c1[nH]c2nc3ccccc3nc2[nH]c1=O` please.
Marked response: > 100 µM

---

# Lookup of reported TGI keyed by entry
tested on: HOP-62 NSCLC; test: NCI tumour cell line growth inhibition, 48 h

- structure: "Cc1ccc2nc(-c3ccc(N(C)C)c(Br)c3)cn2c1"
  system: "HOP-62 NSCLC"
  observed_result: "> 100 µM"
- structure: "O=P(O)(O)c1ccccc1Oc1ccccc1"
  system: "HOP-62 NSCLC"
  observed_result: "> 100 µM"
- structure: "Cc1c(CN2CCN(C)CC2)c(CN2CCN(C)CC2)c(C)n1-c1ccc(Cl)cc1"
  system: "HOP-62 NSCLC"
  observed_result: "> 100 µM"

Okay, now this molecule:
Exam item: I would be grateful if you could share the reported TGI for `CCOc1cccc(/C=N/NC(=O)C(=O)Nc2cccc(C(F)(F)F)c2)c1O` .
Marked response: 53.6 µM

---

system: UACC-62 melanoma; assay: NCI tumour cell line growth inhibition, 48 h
# Lookup of reported TGI keyed by entry

Study these solved cases before continuing.
- compound: "CCc1c(CNc2ccc(C(=O)NC(CC(=O)O)C(=O)O)cc2)ccc2nc(N)nc(N)c12 (stereo unspecified)"
  TGI: "> 1000 µM"
- compound: "COc1ccc(C2=NN(C=O)C(c3cccc(Nc4ccnc5cc(Cl)ccc45)c3)C2)cc1 (stereo unspecified)"
  TGI: "20.6 µM"

Exam item: I would be grateful if you could share the reported TGI for `Cc1cc(C)c(S(=O)(=O)N(CCCN)OCCCON(CCCN)S(=O)(=O)c2c(C)cc(C)cc2C)c(C)c1` .
Marked response: 6.09 µM

Exam item: I would be grateful if you could share the reported TGI for C1=C2C3=[N+](CCCCC3)CC2Cc2ccsc21 (stereo unspecified) .
Marked response: > 100 µM

Exam item: I would be grateful if you could share the reported TGI for `O=C(CCc1cc(O)cc(O)c1)NCCCNC(=O)CCc1cc(O)cc(O)c1` .
Marked response: > 100 µM

Exam item: I would be grateful if you could share the reported TGI for `Cn1c(=O)c2c(nc3n(Cc4ccccc4)c(=O)c(NCCCBr)cn23)n(C)c1=O` .
Marked response: > 100 µM

Exam item: I would be grateful if you could share the reported TGI for CC(=O)OCC1OC(n2c(-c3ccccc3)c(N=Nc3ccccc3)c(C)c(C#N)c2=S)C(OC(C)=O)C(OC(C)=O)C1OC(C)=O (stereo unspecified) .
Marked response: > 100 µM

Exam item: I would be grateful if you could share the reported TGI for O=C(N/N=C(/CCN1CCCC1)CC(c1ccccc1)c1c(O)c2ccccc2oc1=O)c1ccncc1 (stereo unspecified) .
Marked response: > 100 µM

Exam item: I would be grateful if you could share the reported TGI for `CCN(CC)C(=S)Oc1cc2oc(=O)cc(C)c2cc1Cl` .
Marked response: 73.7 µM

Exam item: I would be grateful if you could share the reported TGI for `CC[O-].CC[O-].O=S(=O)([O-])c1ccc([O-])c2ncccc12.O=S(=O)([O-])c1ccc([O-])c2ncccc12.[Ti+4]` .
Marked response: > 100 µM

Exam item: I would be grateful if you could share the reported TGI for COC1OC(CO)C(O)C1N (stereo unspecified) .
Marked response: > 100 µM
